From: patent US20250034216A1

Target: MTMR12_C152 (Homo sapiens)
Construct: endogenous in cells; host or cells: 22Rv1
Sequence (Q9C0I1 whole entry): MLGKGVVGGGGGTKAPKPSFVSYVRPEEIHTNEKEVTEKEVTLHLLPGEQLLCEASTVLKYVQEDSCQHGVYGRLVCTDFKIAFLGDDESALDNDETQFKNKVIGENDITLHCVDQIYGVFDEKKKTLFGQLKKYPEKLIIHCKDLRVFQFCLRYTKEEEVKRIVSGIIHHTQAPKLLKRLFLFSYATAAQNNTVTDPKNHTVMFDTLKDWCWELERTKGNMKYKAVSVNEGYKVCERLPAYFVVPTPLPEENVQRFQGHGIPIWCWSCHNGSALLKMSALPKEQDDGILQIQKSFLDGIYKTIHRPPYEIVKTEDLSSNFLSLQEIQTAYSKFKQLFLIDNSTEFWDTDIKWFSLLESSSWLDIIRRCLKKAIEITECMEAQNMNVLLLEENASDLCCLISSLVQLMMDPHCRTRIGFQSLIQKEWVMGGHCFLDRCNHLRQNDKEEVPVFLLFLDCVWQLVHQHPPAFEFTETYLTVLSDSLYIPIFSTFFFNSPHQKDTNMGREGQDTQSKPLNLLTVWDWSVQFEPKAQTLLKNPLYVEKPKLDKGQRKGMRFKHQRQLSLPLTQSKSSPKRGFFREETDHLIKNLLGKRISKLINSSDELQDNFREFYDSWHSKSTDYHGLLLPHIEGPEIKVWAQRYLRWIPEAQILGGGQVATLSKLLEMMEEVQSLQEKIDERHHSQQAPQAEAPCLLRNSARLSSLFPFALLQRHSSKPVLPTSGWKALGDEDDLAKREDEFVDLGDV
Assay: IA-DTB cysteine engagement
Format: binding
Conditions: 22Rv1 cells, 20 μM probe, 1 h, relative to DMSO
Method: Sample preparation: Cells (adherent: 15 cm dishes, suspension: 2 million cells/mL) were treated with electrophilic probes in situ for indicated times and concentrations, washed with ice-cold PBS, and flash frozen in liquid nitrogen. […] Whole cell lysates protein content was measured using a standard DC protein assay (Bio-Rad) and 500 μL (2 mg/mL protein content) were treated with 5 μL of 10 mM 1A-DTB (in DMSO) for 1 h at ambient temperature with occasional vortexing. […]
Test readout: % engagement MTMR12_C152 (%)

# Molecule, Unit label, Value reported
rows = [
    ("C=CC(=O)N1C[C@@H](c2ccc(Br)cc2)[C@H]1C(=O)Nc1cccc2cccnc12 [MY-1A]", "%", 40.5),
    ("C=CC(=O)N1C[C@H](c2ccc(Br)cc2)[C@@H]1C(=O)Nc1cccc2cccnc12 [MY-1B]", "%", 31),
    ("C=CC(=O)N1C[C@H](c2ccc(Br)cc2)[C@H]1C(=O)Nc1cccc2cccnc12 [MY-3B]", "%", 91.5),
    ("C=CC(=O)N1C[C@H](c2ccc(Br)cc2)[C@H]1C(=O)Nc1cccc2cccnc12 [MY-3A]", "%", 12),
]
